# System: U2OS
# test.method.notes: Multiplex assay against U2OS
# Assay type: toxicity, cell-based
# run.parameters: human, 12 h, 1 µM, compound concentration 1 uM, replicate 1
property.measured: Population Mitochondria Different-Phenotype (%)

Examples with answers:
Cc1cc(C)cc(-c2cnc3cc(Cl)c(-c4cccc(O)c4)cc3c2OCCCN)c1 :: 76%
Cn1cc(-c2[nH]c3cc(NC(=O)[C@H](N)C4CCCCC4)cc4c3c2C=NNC4=O)cn1 :: 4%
CN1CCN(CCOc2cc(OC3CCOCC3)c3c(Nc4c(Cl)ccc5c4OCO5)ncnc3c2)CC1 [SARACATINIB] :: 20%
CC(C)NCC(O)COc1ccc(CCOCC2CC2)cc1.Cl (stereo unspecified) [BETAXOLOL HYDROCHLORIDE] :: 14%
Cc1[nH]c(/C=C2\C(=O)Nc3ccc(S(=O)(=O)N(C)c4cccc(Cl)c4)cc32)c(C)c1C(=O)N1CCN(C)CC1 :: 58%

Q) Using known records, supply Population Mitochondria Different-Phenotype (%) for `COc1cc(-n2cnc3cc(-c4ccc(Cl)cc4)sc3c2=O)ccc1OCCN1CCCC1`
A) 63%

Q) Using known records, supply Population Mitochondria Different-Phenotype (%) for O=C1NCN(c2ccccc2)C12CCN(CCCOc1ccc(F)cc1)CC2 [SPIRAMIDE]
A) 9%
